Substrate: CC(C)=CCC/C(C)=C/CC/C(C)=C/CO[P@@](=O)(O)OP(=O)(O)O
Assay: steady-state kinetics of purified enzyme (details in supplement)
Format: biochemical, Streptomyces coelicolor
Details: Mg2+-dependent enzyme; assay conditions in supplement
RESULT TYPE: Km (µM)
One number for each entry, in µM.

Enquiry: I would be grateful if you could share the reported Km for Gd11olS (germacradien-11-ol synthase; N-terminal domain of geosmin synthase) (Streptomyces coelicolor A3(2); V187A) (protein, N-terminal domain, residues 1-366 of geosmin synthase; codon-optimized synthetic gene in pET28a, expressed in E. coli, purified to homogeneity; tag details in supplement) MTQQPFQLPHFYLPHPARLNPHLDEARAHSTTWAREMGMLEGSGVWEQSDLEAHDYGLLCAYTHPDCDGPALSLITDWYVWVFFFDDHFLEKYKRSQDRLAGKAHLDRLPLFMPLDDAAGMPEPRNPVEAGLADLWTRTVPAMSADWRRRFAVATEHLLNESMWELSNINEGRVANPVEYIEMRRKAGGAPWSAGLVEYATAEVPAAVAGTRPLRVLMETFSDAVHLRNDLFSYQREVEDEGELSNGVLVLETFFGCTTQEAADLVNDVLTSRLHQFEHTAFTEVPAVALEKGLTPLEVAAVGAYTKGLQDWQSGGHEWHMRSSRYMNKGERPLAGWQALTGPGTSAADVGALLADAVAQRARSYT .
Return: 0.3
